src = paper PMC3845904

Reported Reverse Type I spectra ΔAmax/Ks (magnitude of spectral binding) values are given for each entry in this list.
# ASSAY TARGET: human P450 1B1 (Homo sapiens)
# MEASUREMENT PROTOCOL: Spectral binding titration
# CONDITION PARAMETERS: purified P450 1B1 1.0 μM; ND = not detected at 100 μM
Provide a numeric answer; units are not to be included.

Worked cases, answers included:
# MOLECULE, MEASURED RESULT
data = [
    ("Oc1cc(O)cc(/C=C/c2ccc(O)c(O)c2)c1 [Piceatannol (Pice), Piceatannol, reference compound]", 0.0016),
    ("C#Cc1cc2ccc3cccc4ccc(c1)c2c34", 0.0209),
    ("CC#Cc1cc2ccccc2c2ccccc12", 0.0153),
]

# next molecule below
Task: Consider the molecule shown here: "COc1ccc(-c2cc(=O)c3ccccc3o2)cc1OC" What is its recorded Reverse Type I spectra ΔAmax/Ks (magnitude of spectral binding)?
Output: 0.0021

* * *

# ASSAY TARGET: human P450 1B1 (Homo sapiens)
# MEASUREMENT PROTOCOL: Spectral binding titration
# CONDITION PARAMETERS: purified P450 1B1 1.0 μM; means ± SEs; ND = not detected at 100 μM
OUTCOME MEASURE: Reverse Type I spectra ΔAmax
Provide a numeric answer; units are not to be included.

Worked cases, answers included:
# COMPOUND, Reverse Type I spectra ΔAmax
measured = [
    ("COc1ccccc1-c1cc(=O)c2ccccc2o1", 0.070),
    ("c1cc2ccc3cccc4ccc(c1)c2c34 [pyrene, reference compound]", 0.044),
    ("O=c1cc(-c2ccccc2)oc2ccc3ccccc3c12 [BNF, β–naphthoflavone, reference compound]", 0.079),
    ("C#CCOc1ccc(-c2ccc(OCC#C)cc2)cc1", 0.031),
    ("COc1ccc(-c2cc(=O)c3ccccc3o2)cc1OC", 0.051),
]

Task: Consider the compound shown here: "CC#Cc1cc2ccccc2c2ccccc12" What is its recorded Reverse Type I spectra ΔAmax?
Output: 0.049

Task: Consider the compound shown here: "C#CCOc1ccccc1-c1ccccc1OCC#C" What is its recorded Reverse Type I spectra ΔAmax?
Output: 0.018

Task: Consider the compound shown here: "CC#Cc1ccc2c(ccc3ccccc32)c1" What is its recorded Reverse Type I spectra ΔAmax?
Output: 0.067

* * *

Reported Kd values are given for each entry in this list.
# ASSAY TARGET: human P450 1B1 (Homo sapiens, UniProt Q16678)
# Sequence (Q16678 whole entry): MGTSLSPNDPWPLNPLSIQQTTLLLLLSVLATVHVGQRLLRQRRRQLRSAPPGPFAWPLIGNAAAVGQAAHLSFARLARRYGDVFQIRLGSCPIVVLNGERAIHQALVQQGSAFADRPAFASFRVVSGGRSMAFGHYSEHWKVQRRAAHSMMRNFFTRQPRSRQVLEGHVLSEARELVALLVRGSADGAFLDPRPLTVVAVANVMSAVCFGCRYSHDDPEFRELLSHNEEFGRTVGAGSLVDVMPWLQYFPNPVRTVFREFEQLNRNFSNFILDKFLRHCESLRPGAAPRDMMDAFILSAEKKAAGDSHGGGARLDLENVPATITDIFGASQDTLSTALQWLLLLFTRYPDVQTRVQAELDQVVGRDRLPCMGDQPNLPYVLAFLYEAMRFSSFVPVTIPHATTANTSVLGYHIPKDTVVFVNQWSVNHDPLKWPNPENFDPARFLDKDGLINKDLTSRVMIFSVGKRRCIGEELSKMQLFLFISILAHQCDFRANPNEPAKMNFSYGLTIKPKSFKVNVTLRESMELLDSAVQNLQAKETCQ
# MEASUREMENT PROTOCOL: Spectral binding titration

Worked cases, answers included:
# COMPOUND, Kd
records = [
    ("COc1ccccc1-c1cc(=O)c2c(O)cc(O)cc2o1 [2M57DHF, 2′-methoxy-5,7-dihydroxyflavone]", "64 µM"),
    ("C=Cc1ccc2ccc3cccc4ccc1c2c34", "4.4 µM"),
    ("c1cc2ccc3cccc4ccc(c1)c2c34 [pyrene, reference compound]", "1.3 µM"),
    ("COc1ccc(-c2cc(=O)c3ccc(O)c(O)c3o2)cc1", "56 µM"),
    ("COc1ccc(-c2cc(=O)c3ccc(O)c(O)c3o2)cc1OC [34DM78DHF, 3′,4′-dimethoxy-7,8-dihydroxyflavone]", "190 µM"),
]

Task: Consider the compound shown here: O=c1cc(-c2ccccc2)oc2ccc3ccccc3c12 [BNF, β–naphthoflavone, reference compound] What is its recorded Kd?
Output: 13 µM

Task: Consider the compound shown here: COc1cccc(-c2cc(=O)c3c(O)cc(O)cc3o2)c1 [3M57DHF, 3′-methoxy-5,7-dihydroxyflavone] What is its recorded Kd?
Output: 20 µM

Task: Consider the compound shown here: "COc1ccc(-c2cc(=O)c3ccccc3o2)cc1OC" What is its recorded Kd?
Output: 24 µM

* * *

# ASSAY TARGET: UniProtKB Q16678
OUTCOME MEASURE: pIC50
Please treat pIC50 as minus the base-10 logarithm of the molar concentration.

Task: Recall the recorded pIC50 for "CCC#Cc1ccc(-c2ccccc2)cc1" with UniProtKB Q16678 and state it.
Output: 5.82

* * *

# ASSAY TARGET: human P450 1B1 (Homo sapiens)
# CONDITION PARAMETERS: pH 7.4
OUTCOME MEASURE: Kd (µM)
# output: bare number, implied unit µM

Task: Recall the recorded Kd for "CCC#Cc1ccc(-c2ccccc2)cc1" with human P450 1B1 (Homo sapiens) and state it.
Output: 54

* * *

# ASSAY TARGET: human P450 1B1 (Homo sapiens)
# MEASUREMENT PROTOCOL: Spectral binding titration
# CONDITION PARAMETERS: purified P450 1B1 1.0 μM; ND = not detected at 100 μM
Mark each entry 1.0 if its Reverse Type I spectra ΔAmax/Ks (magnitude of spectral binding) sits below 0.001, and 0.0 for all others.

# example entries with known answers
# COMPOUND, QUALITATIVE LABEL
records = [
    ("O=c1cc(-c2ccccc2)oc2ccccc12 [flavone, reference compound]", 1.0),
    ("C=Cc1ccc2ccc3cccc4ccc1c2c34", 0.0),
    ("COc1cccc(-c2cc(=O)c3c(O)cc(O)cc3o2)c1 [3M57DHF, 3′-methoxy-5,7-dihydroxyflavone]", 0.0),
    ("CC#Cc1ccc2ccc3cccc4ccc1c2c34", 0.0),
    ("C#CCOCc1ccccc1-c1ccccc1", 1.0),
]

Task: State whether 0.001 exceeds Reverse Type I spectra ΔAmax/Ks (magnitude of spectral binding) recorded for c1ccc(-c2ccccc2)cc1 [biphenyl, reference compound] .
Output: 1.0

Task: State whether 0.001 exceeds Reverse Type I spectra ΔAmax/Ks (magnitude of spectral binding) recorded for "CC#Cc1ccc(-c2ccccc2)cc1" .
Output: 0.0

Task: State whether 0.001 exceeds Reverse Type I spectra ΔAmax/Ks (magnitude of spectral binding) recorded for Oc1ccc(/C=C/c2cc(O)cc(O)c2)cc1 [resveratrol (Res), resveratrol, reference compound] .
Output: 0.0

Task: State whether 0.001 exceeds Reverse Type I spectra ΔAmax/Ks (magnitude of spectral binding) recorded for "COc1cccc(-c2cc(=O)c3ccccc3o2)c1" .
Output: 1.0

Task: State whether 0.001 exceeds Reverse Type I spectra ΔAmax/Ks (magnitude of spectral binding) recorded for "C#CCOCc1ccc(-c2ccccc2)cc1" .
Output: 0.0

Task: State whether 0.001 exceeds Reverse Type I spectra ΔAmax/Ks (magnitude of spectral binding) recorded for "COc1ccc(-c2cc(=O)c3ccc(O)c(O)c3o2)cc1" .
Output: 0.0

* * *

Reported IC50 values are given for each entry in this list.
# ASSAY TARGET: human P450 1B1 (Homo sapiens)
# MEASUREMENT PROTOCOL: biochemical
# output: bare number, implied unit µM

Worked cases, answers included:
# COMPOUND, IC50, µM
rows = [
    ("C=Cc1ccc2ccc3cccc4ccc1c2c34 [1VP, 1-vinylpyrene]", 0.15),
    ("CC#Cc1ccc2c(ccc3ccccc32)c1 [2PPh, 2-(1-propynyl)phenanthrene]", 0.15),
    ("COc1cccc(-c2cc(=O)c3c(O)cc(O)cc3o2)c1 [3M57DHF, 3′-methoxy-5,7-dihydroxyflavone]", 0.11),
    ("COc1ccccc1-c1cc(=O)c2c(O)cc(O)cc2o1 [2M57DHF, 2′-methoxy-5,7-dihydroxyflavone]", 0.24),
    ("COc1ccc(-c2cc(=O)c3ccccc3o2)cc1 [4MF, 4′-methoxyflavone]", 0.23),
    ("C#Cc1ccc2c(ccc3ccccc32)c1 [2EPh, 2-ethynylphenanthrene]", 0.21),
    ("CC#Cc1cc2ccccc2c2ccccc12 [9PPh, 9-(1-propynyl)phenanthrene]", 0.16),
    ("C#Cc1ccc(-c2ccccc2)cc1 [4EB, 4-ethynylbiphenyl]", 2.2),
    ("C#Cc1cc2ccccc2c2ccccc12 [9EPh, 9-ethynylphenanthrene]", 0.12),
    ("COc1ccccc1-c1cc(=O)c2ccccc2o1 [2MF, 2′-methoxyflavone]", 0.32),
]

Task: Consider the compound shown here: Oc1ccc(/C=C/c2cc(O)cc(O)c2)cc1 [resveratrol (Res), resveratrol, reference compound] What is its recorded IC50?
Output: 1.2

Task: Consider the compound shown here: COc1cccc(-c2cc(=O)c3ccccc3o2)c1 [3MF, 3′-methoxyflavone] What is its recorded IC50?
Output: 0.15

Task: Consider the compound shown here: c1cc2ccc3cccc4ccc(c1)c2c34 [pyrene, reference compound] What is its recorded IC50?
Output: 0.025

Task: Consider the compound shown here: C#Cc1ccc2ccccc2c1 [2EN, 2-ethynylnaphthalene] What is its recorded IC50?
Output: 1.2

Task: Consider the compound shown here: COc1ccc(-c2cc(=O)c3ccc(O)c(O)c3o2)cc1 [4M78DHF] What is its recorded IC50?
Output: 1.1

Task: Consider the compound shown here: CC#Cc1ccc2ccc3ccccc3c2c1 [3PPh, 3-(1-propynyl)phenanthrene] What is its recorded IC50?
Output: 0.067

Task: Consider the compound shown here: C#Cc1ccc2ccc3ccccc3c2c1 [3EPh, 3-ethynylphenanthrene] What is its recorded IC50?
Output: 0.16

Task: Consider the compound shown here: C#Cc1ccc2ccc3cccc4ccc1c2c34 [1EP, 1-ethynylpyrene] What is its recorded IC50?
Output: 0.036

Task: Consider the compound shown here: O=c1cc(-c2ccccc2)oc2ccc3ccccc3c12 [BNF, β–naphthoflavone, reference compound] What is its recorded IC50?
Output: 0.0041
